Measured melting point, listed per entry.

Exercise: Would you kindly share the measured melting point for COc1ccccc1N/C(=C1\C(=O)Nc2ccccc21)c1ccccc1 ?
Solution: 237 °C

* * *

Measured Quantity: melting point

>>> result("O=C(O)CNS(=O)(=O)c1ccc(N/C(=C2\\C(=O)Nc3ccc([N+](=O)[O-])cc32)c2ccccc2)cc1")
"177 to 180 °C (dec.)"
>>> result("CN(C(=O)CN1CCCC1)c1ccc(N/C(=C2\\C(=O)Nc3ccccc32)c2ccccc2)cc1")
"253 to 255 °C"
>>> result("CC(C)(C)OC(=O)NC(Cc1ccc(N/C(=C2\\C(=O)Nc3ccc([N+](=O)[O-])cc32)c2ccccc2)cc1)C(=O)O (stereo not drawn)")
"235 °C (dec.)"
>>> result("CS(=O)(=O)N(CC(=O)O)c1cccc(N/C(=C2\\C(=O)Nc3ccccc32)c2ccccc2)c1")
"270 °C (dec.)"

Exercise: Would you kindly share the measured melting point for CN(C)CCN(c1ccc(N/C(=C2\C(=O)Nc3ccc([N+](=O)[O-])cc32)c2ccccc2)cc1)S(C)(=O)=O ?
Solution: 276 to 277 °C

Exercise: Note, next up: CN(C)CCS(=O)(=O)Nc1ccc(N/C(=C2\C(=O)Nc3ccccc32)c2ccccc2)cc1
Solution: 214 to 216 °C
